assayed_system: T1, Fab 1181
T1 construct: Mouse Fab from an Omniclonal library (Biosite); kappa light chain (detected and captured with goat anti-mouse kappa); the HCVR amino acid entry is 12
T1 sequence (VH, as listed by the source, chain 1 of 2): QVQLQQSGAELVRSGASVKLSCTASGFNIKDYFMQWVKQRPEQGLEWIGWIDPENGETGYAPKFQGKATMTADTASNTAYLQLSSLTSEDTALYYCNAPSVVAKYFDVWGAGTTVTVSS
T1 sequence (VL, as listed by the source, chain 2 of 2): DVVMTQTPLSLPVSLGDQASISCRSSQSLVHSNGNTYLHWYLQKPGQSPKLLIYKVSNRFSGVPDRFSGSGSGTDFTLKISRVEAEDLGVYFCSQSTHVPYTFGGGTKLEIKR
run_description: competitive ELISA, Fab 1181 on coated BSA-hGhrelin; compound 0.2 ug/ml
No end group written: not given here. *: point of attachment. Octanoyl = CCCCCCCC(=O)*
measured_attribute: Ave. OD (OD)

binder	Ave. OD / OD
HQRVQQRKESKKPPAKLQPR (also called hGhrelin (9-28)) [Ghrelin (9-28)]	1.13
GSSFLSPE (also called hGhrelin (1-8 desacyl)) [Ghrelin (1-8, desacyl)]	1.22
GSSFLSPEHQKAQQRKESKKPPAKLQPR (peptide, UniProt Q9QYH7 24-51, looked up, also: acylated (position and acyl group not given here), mature; The UniProt entry is the precursor; the assay used the ghrelin peptide; also called rGhrelin) [full-length, acylated rat ghrelin]	1.12
GSS(Octanoyl)FLSPE (also called hGhrelin (1-8 acyl); Human 1-8 acyl) [Ghrelin (1-8 acyl)]	1.26
GSSFLSPEHQRVQQRKESKKPPAKLQPX (octanoyl group on the serine at position 3, the 1-28 form has Arg at 28; also called hGhrelin; acylated hGhrelin) [full-length human ghrelin (1-28) acylated with an octanoyl group on the serine at position 3]	0.0784
